# Target system: PRPF40A Mut N-ExtWW12 (Homo sapiens, UniProt O75400, L125A/P123A/P126A/P127A/P78A/P79A/P81A/V80A)
# Construct: WW12long 141–248, and N-ext-WW12 56–236; 6xHis-TEV site (N, cleaved yes); made in house; host or cells: Escherichia coli BL21(DE3)
# Test: ITC of mutant N-ext-WW12 (PPVP/PALPP motifs changed to alanine) with SF1WWbs
# Format: binding
# Assay setup: ITC, individual value 1 (replicate 1); read-out: Kd Values with Nter Ext WW12 MUTANT, individual value
# Excerpt: While only partial backbone chemical shift assignments of this construct (69% completeness), N-ext-WW12, could be possible due to a highly repetitive sequence, a complete assignment of the methyl groups was achieved. We then performed a titration with the high-affinity peptide, SF1WWbs, by NMR. […]
Observed property: pKd
In plain terms, pKd is the concentration in mol/L turned into minus its base-10 logarithm.

Look up and state reported pKd for PPLPPGAPPPPPPPPP [SF1WWbs]
5.61

These measurements were taken from paper PMC11079029.
